Values were extracted from patent US12522597B2.

# Test system: MDR1-MDCK cell monolayers
# assay-notes: MDCK-MDR1 permeability assay (BBB penetration potential)
# Assay type: in vitro ADME
# settings: dog, MDCK-MDR1, 120 min, 5 μM, pH 7.4
Measured MDCK-MDR1: % Recov B-A, listed per entry for reference.
Answer with the value and then the unit.

molecule	experimental-result
Cn1cc(-c2ccc(-c3ccc(O[C@H]4C[C@@H]5CCC[C@@H](N5)[C@H]4F)nn3)c(O)c2)oc1=O (single isomer, unassigned)	82%
Cc1ncn(-c2ccc(-c3ccc(O[C@@H]4C[C@H]5CCC[C@H](N5)[C@@H]4F)nn3)c(O)c2)n1 (single isomer, unassigned)	99%
Cc1cnc(-c2ccc(-c3ccc(O[C@@H]4C[C@H]5CCC[C@H](N5)[C@@H]4F)nn3)c(O)c2)cn1 (single isomer, unassigned)	78%

Param item = Oc1cc(-c2nnco2)c(F)cc1-c1ccc(O[C@@H]2C[C@H]3CC[C@H](N3)[C@@H]2F)nn1 (single isomer, unassigned) [142-ENT2] ; retrieve measured MDCK-MDR1: % Recov B-A.
121%
